System: A498
Experiment: NCI tumour cell line growth inhibition, 48 h
Active and inactive are the calls of the source. Rule as the data show it: active = GI50 up to about 1.1 µM and inactive = higher.
Measurement Type: GI50

• Cc1c(-c2ccccc2)nn2cc(-c3ccccc3)nnc12 = 56.6 µM (inactive)
• CC1(C)OC[C@@H]([C@H](C=O)OCc2ccccc2)O1 = > 100 µM (inactive)
• Cc1nc2c(n1C)C(=O)c1nc(CBr)[nH]c(=O)c1C2=O = > 100 µM (inactive)
• CC(C)(C)c1cc(Br)c(O)c(CN(Cc2cc(C(C)(C)C)cc(Br)c2O)C2CCCCC2)c1 = 13.5 µM (inactive)
• CC(Oc1ccccc1Cl)C(=O)NN1C(=O)CC(=O)N(c2ccccc2)C1=S (stereo not given) = 22.3 µM (inactive)
• CC(=O)Oc1ccccc1[C@H]1CC(=O)C[C@H](c2ccccc2OC(C)=O)C12C(=O)c1ccccc1C2=O = 25.6 µM (inactive)
• N#CC1=C(c2ccccc2)OC2(N)OC(c3ccccc3)=C(C#N)C12C#N (stereo not given) = > 100 µM (inactive)
• COc1cccc(CCn2c(N)c(-c3cc(Cl)cc(Cl)c3)c3ccc([N+](=O)[O-])cc3c2=O)c1 = 3.56 µM (inactive)
• COc1cc(OC(=O)c2ccccc2)cc2c1C(=O)C=CC2=O = 18.5 µM (inactive)
• Cc1nc(N)sc1/N=N/c1ccccc1Br = 14.2 µM (inactive)

This collection of values is drawn from ChEMBL document CHEMBL1201862.
